Provenance of the data: paper PMC9782603

Recorded melting point for the following molecules

The following molecules have reported results that may help.
{"Molecule": "O=C(CCl)Nc1ccc2c(c1)c(=O)ncn2-c1ccccc1 [6a]", "melting point": "< 300 °C"}
{"Molecule": "Cc1cccc(Nc2ccc([N+](=O)[O-])cc2C(N)=O)c1 [3b, 5-Nitro-2-(m-tolylamino) benzamide]", "melting point": "188 to 190 °C"}
{"Molecule": "Cc1nc(=O)c2cc(N)ccc2n1-c1ccccc1 [9a]", "melting point": "268 to 270 °C"}

Name the recorded melting point for Cc1ccc(OCC(=O)Nc2ccc3c(c2)c(=O)nc(C)n3-c2ccccc2)cc1 [11a] .
268 °C

Could you tell me which melting point is on file for Nc1ccc2c(c1)c(=O)ncn2-c1ccccc1 [5a, 6-Amino-1-phenylquinazolin-4(1H)-one] ?
293 to 295 °C

melting point for Cc1ccc(OCC(=O)Nc2ccc3c(c2)c(=O)ncn3-c2cccc(C)c2)cc1 [7d] ?
206 °C
